Each entry below carries its reported t1/2.
target: biotinylated extracellular domain of the human GIP receptor (bioGIPR) (human) (UniProt P48546); assay: SPR single cycle kinetics, bioGIPR captured on chip; category A: t1/2 >15 min
Sequence (P48546 24-138 limits assumed): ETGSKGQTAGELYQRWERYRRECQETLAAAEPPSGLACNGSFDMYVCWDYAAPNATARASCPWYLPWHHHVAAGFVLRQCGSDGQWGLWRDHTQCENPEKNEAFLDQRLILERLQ
*1 amine or outer side, *2 acyl side, *3 side chain or, on linkers, in order; H or OH if unused. Bridges are numbered along the chain shown (N, C = ends). Primed or numbered codes have the meaning given here. [ ]: non-standard residue; d: D form. The star is where a group is joined. Ttds = 1,13-diamino-4,7,10-trioxatridecan-succinamic acid, NCCCOCCOCCOCCCNC(=O)CCC(=O)*; DOTA(In) = O=C1CN2CCN3CCN(CC(=O)*)CCN(CC2)CC(=O)[O][In]([O]1)[O]C(=O)C3; APAc″ = 4-amino-1-carboxymethylpiperidine, NC1CCN(CC(=O)*)CC1; dE(AGLU) = D-glutamic acid bearing 1-amino-1-deoxy-D-glucitol; Pro(trans-4-NH2) = O=C([C@@H]1C[C@@H](N[*:3])CN1[*:1])[*:2]; DOTA = O=C(O)CN1CCN(CC(=O)O)CCN(CC(=O)*)CCN(CC(=O)O)CC1; 2Lut = 2,6-lutidylidene bridge between two thiols; Trp(5-Br) = N[C@@H](Cc1c[nH]c2ccc(Br)cc12)C(=O)O; Trp(5-Cl) = N[C@@H](Cc1c[nH]c2ccc(Cl)cc12)C(=O)O; Pyridine(2,6-diCH2) = c1cc(C[*:1])nc(C[*:2])c1; 2Lut″ = 2,6-lutidylidene linking two thiols; APAc = 4-amino-1-carboxymethylpiperidine; Pro(4S-NH2) = N[C@@H]1CN[C@H](C(=O)O)C1; mXylylene = c1cc(C[*:1])cc(C[*:2])c1; Glutaryl = O=C(CCCC(=O)[*:2])[*:1]; AGLU = 1-amino-1-deoxy-D-glucitol; Hyp = O=C(O)[C@@H]1C[C@@H](O)CN1; Cysteamide = C(CS[*:3])N[*:1]; GLUSEROL = not defined here; NTASEROL = not defined here; hSer = N[C@@H](CCO)C(=O)O; Api = NC1(C(=O)O)CCNCC1; Thp = NC1(C(=O)O)CCOCC1; Aib = CC(C)(N)C(=O)O
measuredEndpoint: t1/2

| binder | val |
| --- | --- |
| {DOTA(In)-APAc″}-DW[Trp(5-Cl)][Hyp]E[dL]C[Thp]LI[Cysteamide] (linker 7-11 via 2Lut; also: DOTA as indium complex (InDOTA)) [InDOTA-APAc-Asp-Trp-5Clw-Hyp-Glu-leu-[Cys(2Lut)-Thp-Leu-Ile-AET]] | > 15 min |
| {DOTA-Ttds}-DW[Trp(5-Cl)]PE[dL]C[Aib]LI[Cysteamide] (linker (positions not given here) via mXylylene; not fully specified (bridges); printed as DOTA-Ttds-Asp-Trp-5Clw-Pro-Glu-leu-[Cys(3MeBn)-Aib-Leu-Ile-AET]) [DOTA-Ttds-Asp-Trp-5Clw-Pro-Glu-leu-[Cys(3MeBn)-Aib-Leu-Ile-AET]] | > 15 min |
| DWXXEXCXLIC (AGLU-Glutar; 5Clw; Hyp; D-leu; Apc(AGLU-Glutar); 2Lut bridge Cys-Cys; APAc; Lys(DOTA); C-term NH2) [AGLU-Glutar-Asp-Trp-5Clw-Hyp-Glu-leu-[Cys(2Lut)-Apc(AGLU-Glutar)-Leu-Ile-Cys]-APAc-Lys(DOTA)-NH2] | > 15 min |
| Ac-[hSer]W[Trp(5-Br)][Hyp]E[dL]C[Thp]LIC-NH2 (linker 7-11 via Pyridine(2,6-diCH2); SMILES CC[C@H](C)[C@@H]1NC(=O)[C@H](CC(C)C)NC(=O)C2(CCOCC2)NC(=O)[C@@H](NC(=O)[C@@H](CC(C)C)NC(=O)[C@H](CCC(=O)O)NC(=O)[C@@H]2C[C@@H](O)CN2C(=O)[C@H](Cc2c[nH]c3ccc(Br)cc23)NC(=O)[C@H](Cc2c[nH]c3ccccc23)NC(=O)[C@H](CCO)NC(C)=O)CSCc2cccc(n2)CSC[C@@H](C(N)=O)NC1=O) [Ac-Hse-Trp-5Brw-Hyp-Glu-leu-[Cys(2Lut)-Thp-Leu-Ile-Cys]-NH2] | > 15 min |
| Ac-DW[Trp(5-Cl)][Pro(trans-4-NH2)](DOTA)E[dL]C[Thp]LIC-NH2 (linker 7-11 via 2Lut″) [Ac-Asp-Trp-5Clw-Tap(DOTA)-Glu-leu-[Cys(2Lut)-Thp-Leu-Ile-Cys]-NH2] | > 15 min |
| {AGLU-Glutaryl-APAc}-DW[Trp(5-Cl)][Hyp]E[dL]C[Api](DOTA)LIC-{APAc-dE(AGLU)-NH2} (linker 7-11 via Pyridine(2,6-diCH2)) [AGLU-Glutar-APAc-Asp-Trp-5Clw-Hyp-Glu-leu-[Cys(2Lut)-Apc(DOTA)-Leu-Ile-Cys]-APAc-glu(AGLU)-NH2] | > 15 min |
| {DOTA-Ttds}-DW[Trp(5-Cl)][Pro(4S-NH2)]E[dL]C[Aib]LI[Cysteamide] (linker 7-11 via mXylylene) [DOTA-Ttds-Asp-Trp-5Clw-4Ap-Glu-leu-[Cys(3MeBn)-Aib-Leu-Ile-AET]] | > 15 min |
| {NTASEROL}-DW[Trp(5-Cl)][Pro(trans-4-NH2)]E[dL]C[Api](DOTA)LIC-{APAc-GLUSEROL} (linker 7-11 via Pyridine(2,6-diCH2); reading uncertain) [NTASEROL-Asp-Trp-5Clw-Tap-Glu-leu-[Cys(2Lut)-Apc(DOTA)-Leu-Ile-Cys]-APAc-GLUSEROL] | > 15 min |
